Values from the supplement of paper PMC11196671

experimentDescription: MHET released, HPLC; higher = more MHET released; extreme values may be limits of the assay
particulars: PET substrate: aFilm; 60 °C; pH 8.5; 24 h
experimentalReadout: MHET released (mM)
Number only, in mM; omit the unit.

1. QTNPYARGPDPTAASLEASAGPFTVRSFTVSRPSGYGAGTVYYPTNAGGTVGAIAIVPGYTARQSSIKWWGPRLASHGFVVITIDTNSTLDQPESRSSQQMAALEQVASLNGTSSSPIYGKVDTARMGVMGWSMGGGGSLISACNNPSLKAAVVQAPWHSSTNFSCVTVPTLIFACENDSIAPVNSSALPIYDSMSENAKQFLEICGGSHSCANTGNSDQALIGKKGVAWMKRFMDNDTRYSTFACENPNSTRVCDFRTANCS [Z1-PETase]: 0.249

// query Return the recorded MHET released value; entry: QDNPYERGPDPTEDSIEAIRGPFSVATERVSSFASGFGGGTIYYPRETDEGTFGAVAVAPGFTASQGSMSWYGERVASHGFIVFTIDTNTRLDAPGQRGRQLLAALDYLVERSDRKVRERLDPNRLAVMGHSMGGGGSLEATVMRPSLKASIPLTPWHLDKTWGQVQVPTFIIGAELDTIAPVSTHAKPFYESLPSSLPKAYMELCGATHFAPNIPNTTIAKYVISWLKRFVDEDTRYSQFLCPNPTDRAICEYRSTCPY [Cut190*SS]
// result 0.0945

----------
Consider the following sequences and their measured MHET released readings.
experimentDescription: MHET released, HPLC; higher = more MHET released; extreme values may be limits of the assay
particulars: PET substrate: cryPow; 60 °C; pH 4.5; 24 h
Dear colleague, please return just the value in mM, with no unit written.

1) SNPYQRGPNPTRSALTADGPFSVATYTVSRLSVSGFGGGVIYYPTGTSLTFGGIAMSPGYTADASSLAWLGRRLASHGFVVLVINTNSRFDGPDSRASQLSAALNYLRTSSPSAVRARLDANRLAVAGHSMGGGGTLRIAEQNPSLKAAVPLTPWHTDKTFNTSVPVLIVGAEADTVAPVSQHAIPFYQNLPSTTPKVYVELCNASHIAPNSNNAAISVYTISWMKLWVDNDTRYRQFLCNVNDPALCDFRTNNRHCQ [LCC-ICCG]: 0.0148

Alright, here's another sequence for you.
// query Fill in MHET released for record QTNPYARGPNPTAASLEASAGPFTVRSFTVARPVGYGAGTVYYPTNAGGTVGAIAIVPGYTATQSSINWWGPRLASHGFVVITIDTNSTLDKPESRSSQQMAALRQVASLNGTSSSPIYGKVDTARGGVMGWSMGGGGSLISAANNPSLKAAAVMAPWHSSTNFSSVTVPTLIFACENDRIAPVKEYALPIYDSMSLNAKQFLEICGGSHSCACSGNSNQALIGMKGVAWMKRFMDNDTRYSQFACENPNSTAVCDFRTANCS [HotPETase]
// result 0

----------
experimentDescription: terephthalic acid (TPA) released, HPLC; higher = more TPA released; extreme values may be limits of the assay
particulars: PET substrate: cryPow; 60 °C; pH 7.5; 24 h
experimentalReadout: terephthalic acid
Please make sure the unit comes right after the number.

// query Please report the measured terephthalic acid for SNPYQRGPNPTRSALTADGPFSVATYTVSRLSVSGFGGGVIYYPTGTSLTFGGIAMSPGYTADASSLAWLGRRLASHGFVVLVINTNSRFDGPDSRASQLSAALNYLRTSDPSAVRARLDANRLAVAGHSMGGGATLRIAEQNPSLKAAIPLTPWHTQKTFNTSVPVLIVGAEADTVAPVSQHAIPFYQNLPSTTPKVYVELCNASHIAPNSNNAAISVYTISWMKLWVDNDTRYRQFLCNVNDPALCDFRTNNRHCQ [LCC-ICCG DAQI]
// result 0.216 mM

// query Provide one value: measured terephthalic acid of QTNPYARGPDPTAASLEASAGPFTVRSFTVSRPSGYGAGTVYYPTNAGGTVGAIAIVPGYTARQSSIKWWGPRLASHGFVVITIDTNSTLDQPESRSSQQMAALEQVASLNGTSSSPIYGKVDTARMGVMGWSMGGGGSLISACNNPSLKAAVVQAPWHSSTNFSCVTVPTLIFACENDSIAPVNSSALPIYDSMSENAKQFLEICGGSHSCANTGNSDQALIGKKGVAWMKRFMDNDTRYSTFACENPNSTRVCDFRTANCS [Z1-PETase]
// result 0.236 mM
